Target: SHP2-C SH2;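 also: peptide library displayed on the E. coli surface as eCPX fusions, selected cells deep-sequenced, score is each peptide's frequency after selection divided by its frequency in the input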
Test: SH2 binding enrichment of the phosphorylated peptide, bacterial display (enrichment ratio); higher = better substrate or ligand; peptides without Tyr show the background
The following sequences are shown together with reported SH2 binding enrichment values.
quantity measured: SH2 binding enrichment

ordered residues: HKLSFNEFDFE [BTK_Y40_Y40N_YF]
measured result: 0.456

ordered residues: GLSSAYGDLTS [KRT8_Y427_G429D]
measured result: 0.655

ordered residues: QEGPEYWDGNT [HLA-B_Y83_R86G]
measured result: 0.653

---

Tested on: Fer (mouse);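 also: 11-residue human phosphosite peptides and single-mutation variants displayed on the E. coli surface, counted by deep sequencing, each peptide's frequency after selection divided by its frequency in the unselected input library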;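 also: frequency after pTyr selection over input frequency; kinase dosed for 20-30% of maximal phosphorylation in three min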
Experiment: phosphorylation enrichment, bacterial display (enrichment ratio); higher = better substrate or ligand; peptides without Tyr show the background
The following sequences are shown together with reported phosphorylation enrichment values.

ordered residues: LFEDRYLLGPS [ASS1_Y87_T91P_YF]
phosphorylation enrichment: 0.634
--
ordered residues: TVEDHYFEGGI [TKT_Y563_YF]
phosphorylation enrichment: 0.559
--
ordered residues: WIPIQCPIISE [NOG_Y222_Y222C]
phosphorylation enrichment: 0.54
--
ordered residues: MGGSVYFSFPD [HIKESHI_Y55_YF]
phosphorylation enrichment: 0.55
--
ordered residues: DQGEQYKKELE [LMNA_Y259_V256G]
phosphorylation enrichment: 0.642
--
ordered residues: GRRNTYFASIA [ACADM_Y352_YF]
phosphorylation enrichment: 0.481
--
ordered residues: TTKGSYSLYVR [HCK_Y180_S183Y]
phosphorylation enrichment: 0.474
--
ordered residues: FAGRDYSLDEF [MYOF_Y1705_G1701A_YF]
phosphorylation enrichment: 0.451
--
ordered residues: RGGWAYVLHPT [TRMT61A_Y67_V66A]
phosphorylation enrichment: 0.611
--
ordered residues: LAGRYYALRSM [CKB_Y174_K177R]
phosphorylation enrichment: 0.5
--
ordered residues: PVGVLYKVKVY [PTS_Y128]
phosphorylation enrichment: 0.699
--
ordered residues: TQFWLYFAGNL [SLC25A5_Y112]
phosphorylation enrichment: 0.498
--
ordered residues: EKKKYYDAKIE [CASP5_Y104_T106A]
phosphorylation enrichment: 0.475
--
ordered residues: KMKGDYYRYLA [YWHAG_Y130]
phosphorylation enrichment: 0.393
--
ordered residues: EEVPLYESATT [DCC_Y809_G805E]
phosphorylation enrichment: 6.01
--
ordered residues: HFNLTYRILSF [MMP23B_Y95]
phosphorylation enrichment: 0.726
--
ordered residues: QYKDKYLAKHN [CASK_Y712]
phosphorylation enrichment: 0.349
--
ordered residues: LVLIKYLPEWT [PSEN1_Y240_F237L]
phosphorylation enrichment: 0.597
--
ordered residues: KVPELYEIHTE [BCR_Y554_K558T]
phosphorylation enrichment: 0.74
--
ordered residues: FKRAVYCIIGR [NUP93_Y391_YF]
phosphorylation enrichment: 0.529
--
ordered residues: PSQRPYVYYYS [PTEN_Y174_R173P]
phosphorylation enrichment: 0.64
--
ordered residues: LTYHMYADPNF [SOS1_Y618]
phosphorylation enrichment: 1.09
--
ordered residues: RKGGSYTQAAS [HLA-A_Y344]
phosphorylation enrichment: 0.699
--
ordered residues: IETGKYEILTE
phosphorylation enrichment: 0.703
